Data provenance: ChEMBL document CHEMBL1132588

Measured Ratio, listed per entry.
Species on record: Rattus norvegicus
Assay: Ratio of the binding affinities against rat A3 receptor / rat A3 receptor, Ki(rA1) / Ki (rA3).
recorded metric: Ratio

INSERT INTO measurements (smiles_string, observed_value) VALUES
  ('CCCOC(=O)c1c(-c2ccccc2)nc(CC)c(C(=O)SCC)c1CCCF', 9),
  ('CCCOC(=O)c1c(-c2ccccc2)nc(CCF)c(C(=O)SCC)c1CCC', 76),
  ('CCCOC(=O)c1c(-c2ccccc2)nc(CC)c(C(=O)SCC(F)(F)F)c1CCC', 17),
  ('CCCOC(=O)c1c(-c2ccccc2)nc(CC)c(C(=O)SCCCF)c1CCC', 81),
  ('CCCc1c(C(=O)SCC)c(CC)nc(-c2ccccc2)c1C(=O)OCCCF', 12),
  ('CCCOC(=O)c1c(-c2ccccc2)nc(CC)c(C(=O)SCC)c1CC', 42),
  ('CCCOC(=O)c1c(CCC)c(C(=O)SCC)c(CC)[n+](C)c1-c1ccccc1', '> 23'),
  ('CCOC(=O)c1c(-c2ccccc2)nc(CC)c(C(=O)SCC)c1CC', '> 100'),
  ('CCCOC(=O)c1c(-c2ccccc2)nc(CC)c(C(=O)SCC)c1CCC', 140),
  ('CCSC(=O)c1c(CC)nc(-c2ccccc2)c(C(=O)OCCF)c1CC', 19);

---

Target: UniProt:P25099
Sequence (P25099 whole entry): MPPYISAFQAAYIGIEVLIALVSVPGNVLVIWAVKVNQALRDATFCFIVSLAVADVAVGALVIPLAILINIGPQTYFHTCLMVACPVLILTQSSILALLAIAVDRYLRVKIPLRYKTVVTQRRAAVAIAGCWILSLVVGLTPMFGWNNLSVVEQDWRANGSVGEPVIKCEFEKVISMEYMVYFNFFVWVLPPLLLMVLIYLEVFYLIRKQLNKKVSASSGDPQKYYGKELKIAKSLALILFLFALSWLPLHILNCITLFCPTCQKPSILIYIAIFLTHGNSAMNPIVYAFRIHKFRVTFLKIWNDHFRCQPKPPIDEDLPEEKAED
Test: Displacement of specific [3H]-CGS- 21680R-PIA binding to Adenosine A1 receptor in rat brain membranes.
Assay type: cell membranes
Details: in the assay text read “[3H]R-PIA” for “[3H]-CGS- 21680R-PIA”
recorded metric: Ki

INSERT INTO measurements (smiles_string, recorded_metric, observed_value) VALUES
  ('CCSC(=O)c1c(CC)nc(-c2ccccc2)c(C(=O)OCCF)c1CC', 'Ki', '11.5 µM'),
  ('CCCc1c(C(=O)SCC)c(CC)nc(-c2ccccc2)c1C(=O)OCC(F)(F)C(F)(F)F', 'Ki', '5.68 µM'),
  ('CCCOC(=O)c1c(-c2ccccc2)nc(CC)c(C(=O)SCC(F)(F)F)c1CCC', 'Ki', '8.29 µM'),
  ('CCCc1c(C(=O)SCC)c(CC)nc(-c2ccccc2)c1C(=O)OCCCF', 'Ki', '6.05 µM'),
  ('CCCOC(=O)c1c(-c2ccccc2)nc(CC)c(C(=O)SCC)c1CCSC(C)=O', 'Ki', '9.8 µM'),
  ('CCCOC(=O)c1c(-c2ccccc2)nc(CC)c(C(=O)SCCO)c1CCC', 'Ki', '10.8 µM'),
  ('CCCOC(=O)c1c(-c2ccccc2)nc(CC)c(C(=O)SCC)c1CCO', 'Ki', '9.04 µM'),
  ('CCOC(=O)c1c(-c2ccccc2)nc(CC)c(C(=O)SCC)c1CCCN1C(=O)c2ccccc2C1=O', 'Ki', '5.24 µM'),
  ('CCCc1c2c(nc(-c3ccccc3)c1C(=O)OCC)CCSC2=O', 'Ki', '25.1 µM'),
  ('CCCOC(=O)c1c(-c2ccccc2)nc(CCO)c(C(=O)SCC)c1CCC', 'Ki', '5.94 µM'),
  ('CCOC(=O)c1c(-c2ccccc2)nc(CC)c(C(=O)SCC)c1CCN1C(=O)c2ccccc2C1=O', 'Ki', '0.49 µM'),
  ('CCCOC(=O)c1c(-c2ccccc2)nc(CCF)c(C(=O)SCC)c1CCC', 'Ki', '19.8 µM'),
  ('CCCOC(=O)c1c(-c2ccc(F)cc2)nc(CC)c(C(=O)SCC)c1CCC', 'Ki', '41 µM'),
  ('CCOC(=O)c1c(-c2ccccc2)nc(CC)c(C(=O)SCC)c1CC', 'Ki', '0.041 µM'),
  ('CCCOC(=O)c1c(-c2ccccc2)nc(CC)c2c1CCOC2=O', 'Ki', '11.2 µM'),
  ('CCCOC(=O)c1c(-c2ccccc2)nc(CC)c(C(=O)SCC)c1CCCF', 'Ki', '8.09 µM'),
  ('CCCOC(=O)c1c(-c2ccccc2)nc(CC)c(C(=O)SCC)c1CCC', 'Ki', '15.6 µM'),
  ('CCCOC(=O)c1c(-c2ccccc2)nc(CC)c(C(=O)SCCF)c1CCC', 'Ki', '8.22 µM'),
  ('CCCOC(=O)c1c(-c2ccccc2)nc(CC)c2c1CCSC2=O', 'Ki', '16.5 µM'),
  ('CCCOC(=O)c1c(-c2ccccc2)nc(CC)c(C(=O)SCCCF)c1CCC', 'Ki', '12.6 µM'),
  ('CCCOC(=O)c1c(-c2cccc(F)c2)nc(CC)c(C(=O)SCC)c1CCC', 'Ki', '8.2 µM'),
  ('CCCOC(=O)c1c(-c2ccccc2)nc(CCOCc2ccccc2)c(C(=O)SCC)c1CCC', 'Ki', '16 µM'),
  ('CCOC(=O)c1c(-c2ccccc2)nc(CC)c2c1CCCNC2=O', 'Ki', '5.79 µM');
